IP-10 overview
- System: mice
- assay method text: Cytokine induction (IL-6, IP-10) in mice after intravenous administration
- Assay type: in vivo
- Design: unit not given here
- condition details: 0.5 mpk, 6 hours

For orientation, consider the following solved cases.
- compound: "CCCCCCCCC(CCCCCCCC)OC(=O)CCCCCCCN(CCO)CCCCCCCC(=O)OCC1CC1CCCCCC (stereo not shown)"
  result: 283.13
- compound: "CCCCCCCCCOC(=O)CCCCCCCN(CCCCCCCC(=O)OC(CCCCCCCC)CCCCCCCC)C1CCCCC1O (stereo not shown)"
  result: 976.50

q: Quick check: IP-10 on mice, item CCCCCCCC/C=C\COC(=O)CCCCCN(CCO)CCCCCC(=O)OC/C=C\CCCCCCCC ?
a: 187.83

q: Which measured IP-10 belongs to CCCCCCCCCOC(=O)CCCCCCCN(CCO)CCCCCCC(=O)OCC(CCCCCCCC)CCCCCCCC , tested on mice?
a: 209.63

q: Return IP-10 measured with mice given this compound: CCCCCCCCCCCCN(CCO)CCCCCCCCCCCC(=O)OC
a: 234.35

q: Can you look up IP-10 on mice for CCCCCCCCCOC(=O)CCCCCCCN(CCO)CCCCCCCC(=O)OCCCCCCCCC ?
a: 172.56
